- Tested on: TRPC4 (mouse), co-expressed with 5HT1a in HEK293
- assayNotes: enhancement of serotonin-evoked TRPC4 response – cell-based, second counter screen, HEK293 TRPC4/5HT1a, Fluo-4, counter-screen for TRPC4 potentiator project, confirmation (AID 434979)
- conditionDetails: Fluo-4 calcium flux, at 10 µM, serotonin added at its EC20 dose
The source made the active and inactive calls.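 Rule for the calls: active = signal rise over 3 SD above mean of control wells given weak agonist, in both repeats and first screen; inactive = the rest.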
Please state which outcome applies, choosing from 1.0 (active), 0.0 (inactive)

Kindly provide the recorded test outcome for the following compound: O=C(O)CN1C(c2ccccc2O)Nc2ccc(Br)cc2C1c1ccccc1 (stereo unspecified) 0.0

Again, but for Fc1ccc(Nc2ncnc3sc4c(c23)CCC4)cc1 1.0

Again, but for CN(C)c1ccc(NC(=O)CN2C3CCCC2CC(NC(=O)c2ccccc2)C3)cc1 (stereo unspecified) 0.0

Again, but for O=C(Nc1c(F)cc(F)cc1Br)c1cc(-c2ccc(O)cc2)on1 0.0

Again, but for Cc1cc(C)nc(Nc2nc(=O)c3ccccc3s2)n1 1.0

Next compound, please.
Kindly provide the recorded test outcome for the following compound: O=C(c1ccncc1)N1c2ccccc2Sc2ccccc21 0.0

* * *

- System: TRPC4 beta (transient receptor potential cation channel C4), mouse
- assayNotes: potentiation of DAMGO EC20 TRPC4 response – cell-based, Fluo-4, HEK293 TRPC4beta/mu-opioid, confirmation (AID 2555)
- conditionDetails: DAMGO EC20, Fluo-4 calcium flux, at 10 µM
Calls of active or inactive are those of the source.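 Rule for the calls: active = primary screen hit whose calcium fluorescence ratio, in both repeats, exceeds the weak agonist control mean by 3 SD; inactive = the rest.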
Please state which outcome applies, choosing from active, inactive

Kindly provide the recorded test outcome for the following molecule: COc1ccc(CN2CCN(c3nc4ccccc4s3)CC2)cc1 inactive

Again, but for c1ccc2[nH]c(CCCCc3nc4ccccc4[nH]3)nc2c1 inactive

Again, but for COc1ccc(N2CCN(C3CCCCC3NS(=O)(=O)c3ccc(Cl)cc3)CC2)cc1 (stereo not drawn) inactive

Continuing:
Kindly provide the recorded test outcome for the following molecule: O=C(COC(=O)c1cccc([N+](=O)[O-])c1)c1ccc2c(c1)OCO2 inactive

* * *

- assayNotes: nonspecific calcium rise without TRPC4 – cell-based, HEK293 mu-opioid receptor line, counter-screen for TRPC4 activator project, confirmation (AID 449723);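 note: counter screen cells carry the mu-opioid receptor alone and lack TRPC4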
- conditionDetails: HEK293 mu-opioid cells, Fluo-4 calcium fluorescence, at 10 µM; active compounds read high
The source made the active and inactive calls.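 How the source made its calls: active means hit in primary screen, with calcium signal over 5 SD above buffer well mean in both duplicates; inactive means the rest.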
quantity: activation

Here is how some compounds turned out for activation.
Recorded activation for Cc1ccc(N(C(=O)c2snc(C(N)=O)c2N)C(C(=O)NCC2CCCO2)c2ccc(C)o2)c(C)c1 (stereo unspecified) , please? inactive

Again, but for CC[n+]1c(/C=C/c2ccc(OC(C)=O)c(OC)c2)ccc2ccccc21 inactive

Again, but for O=C(O)c1ccc(Cl)cc1Nc1nc2cc(Cl)ccc2o1 inactive

Again, but for O=C1C=CC(=O)N1CCNc1ncc(C(F)(F)F)cc1Cl inactive

Again, but for CCCN(CCC)CCCNC(=O)c1cc2c(=O)n(C)c3ccccc3c2n1C inactive

Continuing:
Recorded activation for Cc1ccc(N(CC(=O)NC2CCCC2)C(=O)CNC(=O)c2cccs2)cc1F , please? inactive

Again, but for COc1ccc(SC[C@H](Cc2ccccc2)N2CCN(C)CCC2=O)cc1 inactive

Again, but for COc1ccc(N/C(C)=C2/C(=O)C(=O)N(CCO)C2c2ccc([N+](=O)[O-])cc2)cc1 (stereo unspecified) inactive

Again, but for COc1ccc(C(CNC(=O)C(Cc2ccccc2)NC(N)=O)N(C)C)cc1 (stereo unspecified) inactive

Again, but for Cc1ncsc1CCOC(=O)C12CC3CC(CC(C3)C1)C2 inactive

Again, but for CC(C)NC(=S)N1CCN(C/C=C/c2ccccc2)CC1 inactive

Taken from PubChem BioAssay.
